Provenance of the data: paper PMC3114641

ASSAY READOUT: pKd
Value format note: pKd is -log10 of concentration (mol/L); just state the number.

QUERY: Find pKd (RfBP (Gallus gallus, UniProt P02752)) for the entry Cc1cc2nc3c(=O)n(CC(=O)NCCCN)c(=O)nc-3n(C[C@H](O)[C@H](O)[C@H](O)CO)c2cc1C
RESULT: 4.84
